These measurements were taken from patent US20240317840A1.

targetOrSystem: HBsAg of HBV genotype C (DQ087960) (Hepatitis B virus)
assayExplanation: sandwich ELISA, captured HBsAg from culture supernatant
log10 IC50 overview
reportedEndpoint: log10 IC50 (log10 of the value in nM)

INSERT INTO results (binder, reportedendpoint, resultvalue) VALUES
  ('NOV3837 (antibody, human IgG1, kappa, V domains shown, Full human IgG1 (kappa) expressed in CHO cells) VH: QVQLQESGGRLVRPGGSLRLSCAASGFIFTDYYMTWIRQAPGKGPEWIAFITSGGETTYYADSVKGRFTISRDNAKKSLFLQMYSLRADDTAVYYCVRAHFDGYQYDTRGDFTYYFDNWGLGTLVSVSS VL: EIVMTQSPATLSVSPGERVTLSCRASQSVSSSLAWYQQKPGRAPRLLIYGASTRATGVPARFSGGGSGTDFTLTISSLQSEDFAVYYCHQYINWPPGDTFGQGTRLDIKR', 'log10 IC50', -0.77),
  ('NOV3540 (antibody, human IgG1, kappa, V domains shown, Full human IgG1 (kappa) expressed in CHO cells) VH: EVQLLESGGGLVQPGGSLRLSCAASGFTFSPHAMSWVRQAPGKGLEWVSAISDSGGSTHYADSVKGRFTISRDNSKNTLYLQMNSLRAEDTAVYYCARDDDAWSGYDYWFDYWGQGTLVTVSS VL: DIQMTQSPSSLSASVGDRVTITCRASQSISPYLNWYQQKPGKAPKLLIYAADSLQSGVPSRFSGSGSGTDFTLTISSLQPEDFATYYCQQSYKIPLTFGQGTKVEIKR', 'log10 IC50', -1.00),
  ('NOV3838 (antibody, human IgG1, kappa, V domains shown, Full human IgG1 (kappa) expressed in CHO cells) VH: QVQLQESGGRLVRPGGSLRLSCAASGFIFTDYYMTWIRQAPGKGPEWIAFITSGGETTYYADSVKGRFTISRDNAKKSLFLQMYSLRADDTAVYYCVRAHFDLYQYDTRGDFTYYFDNWGLGTLVSVSS VL: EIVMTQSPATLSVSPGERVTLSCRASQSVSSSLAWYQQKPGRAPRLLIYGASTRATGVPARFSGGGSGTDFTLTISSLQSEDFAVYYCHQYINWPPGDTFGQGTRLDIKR', 'log10 IC50', -0.68),
  ('NOV3832 (antibody, human IgG1, lambda, V domains shown, Full human IgG1 (lambda) expressed in CHO cells) VH: EMQVLESGGGLVQPGGSLRLSCAASGFTFDNYAMSWVRQVPGKGLEWVSSISGSGGSTYYADSVKGQFTISRDNSKNTLYLQMNSLRAEDTAVYYCAKSSILSGGHARVYGIDVWGQGTTVTVSS VL: QSALTQPPSVSVAPGQTARITCGGNNIGSQSVHWYQQKPGQAPILVVYDDTDRPSGIPARFSGSSSGSTATLTIGRVEAGDEADYYCQVWDSSSDHVVFGGGTKLTVLS', 'log10 IC50', -1.82),
  ('NOV3842 (antibody, human IgG1, lambda, V domains shown, Full human IgG1 (lambda) expressed in CHO cells) VH: EVQLLESGGGLVQPGGSRRLSCAASGFTFSYYGMNWVRQAPGKGLEWVSGITNVGSITYYADTVKGRFSISRDNSKNTLFLQMNSLRAEDTAVYYCAKVGVRSSSGMWDLDYWGQGTLVTVSS VL: SYVLTQPPSVSVAPGQTARLSCGGNNIGSKSLQWYQQKPGQAPVLVVNDESDRPSGIPERFSGSNSGNTATLTISRVEAGDEADYYCQVWDTSSDHVVFGGGTKLTVLG', 'log10 IC50', -0.12);
